Test system: Plasmopara viticola
Experiment: Plasmopara test (grapevine)/protective
Assay type: in vivo
Conditions: grapevine young plants, protective spray, active ingredient concentration 10 ppm, evaluation 6 days after inoculation; 0% = control, 100% = no infection
measuredQuantity: Eff. % (%)
Give a bare numeral; the unit % is implied.

molecule	Eff. % (%)
Cc1cc(C(F)(F)F)nn1CC(=O)N1CCC(c2nc(C3=NOC(c4c(Cl)cccc4OCC#N)C3)cs2)CC1 (stereo not shown)	97
CON=Cc1cccc(C2CC(c3csc(C4CCN(C(=O)Nc5cc(Cl)ccc5C)CC4)n3)=NO2)c1 (mixture of isomers)	100
C[Si](C)(C)C#Cc1ccccc1C1CC(c2csc(C3CCN(C(=O)Cn4nc(C(F)F)cc4C(F)F)CC3)n2)=NO1 (stereo not shown)	85

QUERY: Report its Eff. % with Plasmopara viticola as the test system: CC(=NO)c1ccccc1C1CC(c2csc(C3CCN(C(=O)Cn4nc(C(F)(F)F)cc4C)CC3)n2)=NO1 (stereo not shown)
RESULT: 90

QUERY: Provide Eff. %, system Plasmopara viticola, entry Cc1cc(C(F)(F)F)nn1CC(=O)N1CCC(c2nc(C3=NOC(c4cccc(F)c4OS(=O)(=O)C4CC4)C3)cs2)CC1 (stereo not shown)
RESULT: 100

QUERY: State measured Eff. % of the molecule N#CCOc1cccc(Cl)c1C1CC(c2csc(C3CCN(C(=O)Cn4nc(C(F)F)cc4C(F)F)CC3)n2)=NO1 (stereo not shown) with Plasmopara viticola.
RESULT: 100

QUERY: Provide Eff. %, system Plasmopara viticola, entry CCON=C(C)c1cccc(C2CC(c3csc(C4CCN(C(=O)Cn5nc(C(F)F)cc5C(F)F)CC4)n3)=NO2)c1 (mixture of isomers)
RESULT: 87

###

Details: pH 7.8
measuredQuantity: logp [b]

The following compounds have reported results that may help.
compound	testValue
Cc1ccc(C2CC(c3csc(C4CCN(C(=O)Cn5nc(C(F)(F)F)cc5C)CC4)n3)=NO2)c(OS(C)(=O)=O)c1 (centres unmarked)	3.21[b]
Cc1ccc(S(=O)(=O)Oc2ccccc2C2(C)CC(c3csc(C4CCN(C(=O)Cn5nc(C(F)F)cc5C(F)F)CC4)n3)=NO2)cc1 (racemic)	4.15[b]

QUERY: Check the records and state logp [b] for Cc1ccc(OS(C)(=O)=O)c(C2CC(c3csc(C4CCN(C(=O)Cn5nc(C(F)F)cc5C(F)F)CC4)n3)=NO2)c1 (centres unmarked)
RESULT: 3.11[b]

QUERY: Please list logp [b] recorded for the compound Cc1cc(C(F)(F)F)nn1CC(=O)N1CCC(c2nc(C3=NOC(c4ccc(OS(C)(=O)=O)cc4)C3)cs2)CC1 (centres unmarked)
RESULT: 2.81[b]

QUERY: Supply reported logp [b] belonging to this compound: N#CCN(C=O)c1ccccc1C1CC(c2csc(C3CCN(C(=O)Cn4nc(C(F)F)cc4C(F)F)CC3)n2)=NO1 (centres unmarked)
RESULT: 2.55[b]

QUERY: Output measured logp [b] for this item: Cc1cc(C(F)(F)F)nn1CC(=O)N1CCC(c2nc(C3=NOC(c4c(Cl)cccc4OCC#N)C3)cs2)CC1 (centres unmarked)
RESULT: 3.23[b]

QUERY: Please report logp [b] for the following compound: N#CCOc1c(Cl)cccc1C1CC(c2csc(C3CCN(C(=O)Cn4nc(C(F)F)cc4C(F)F)CC3)n2)=NO1 (centres unmarked)
RESULT: 3.26[b]

QUERY: For the compound Cc1cc(C(F)(F)F)nn1CC(=O)N1CCC(c2nc(C3=NOC(c4ccccc4OS(=O)(=O)C(F)(F)F)C3)cs2)CC1 (centres unmarked) , give its measured logp [b] value.
RESULT: 4[b]

QUERY: Please look at this compound and report its logp [b]: O=C(Oc1ccccc1C1CC(c2csc(C3CCN(C(=O)Cn4nc(C(F)F)cc4C(F)F)CC3)n2)=NO1)c1ccccc1 (centres unmarked)
RESULT: 3.65[b]

QUERY: Please report the measured logp [b] for C=CC(=O)Oc1ccccc1C1CC(c2csc(C3CCN(C(=O)Cn4nc(C(F)(F)F)cc4C)CC3)n2)=NO1 (centres unmarked)
RESULT: 3.3[b]

QUERY: Identify measured logp [b] associated with Cc1cc(C(F)(F)F)nn1CC(=O)N1CCC(c2nc(C3=NOC(c4c(F)ccc(OS(C)(=O)=O)c4F)C3)cs2)CC1 (centres unmarked)
RESULT: 2.94[b]

QUERY: Input CON=Cc1cccc(F)c1C1CC(c2csc(C3CCN(C(=O)Cn4nc(C(F)F)cc4C(F)F)CC3)n2)=NO1 (mixture of isomers) , output reported logp [b].
RESULT: 3.38[b]

QUERY: Provide only the value of recorded logp [b] for CCS(=O)(=O)Oc1ccc(C2CC(c3csc(C4CCN(C(=O)Cn5nc(C(F)(F)F)cc5C)CC4)n3)=NO2)cc1 (centres unmarked)
RESULT: 3.05[b]

QUERY: Specify reported logp [b] for the compound shown: Cc1cc(C(F)(F)F)nn1CC(=O)N1CCC(c2nc(C3=NOC(c4cccc(F)c4OCC#N)C3)cs2)CC1 (centres unmarked)
RESULT: 3.13[b]

QUERY: Given O=C(Cn1nc(C(F)F)cc1C(F)F)N1CCC(c2nc(C3=NOC(c4cc(F)ccc4OS(=O)(=O)C4CC4)C3)cs2)CC1 (centres unmarked) , respond with its logp [b].
RESULT: 3.35[b]

QUERY: Name the recorded logp [b] of the item N#CCOc1ccccc1C1CC(c2csc(C3CCN(C(=O)Cn4nc(C(F)F)cc4C(F)F)CC3)n2)=NO1 (centres unmarked) in your answer.
RESULT: 2.91[b]

QUERY: Note logp [b] for the compound shown: O=C(Cn1nc(C(F)F)cc1C(F)F)N1CCC(c2nc(C3=NOC(c4ccccc4OS(=O)(=O)C(F)(F)F)C3)cs2)CC1 (centres unmarked)
RESULT: 3.92[b]

QUERY: Please indicate logp [b] recorded for CS(=O)(=O)Oc1ccc(F)c(C2CC(c3csc(C4CCN(C(=O)Cn5nc(C(F)F)cc5C(F)F)CC4)n3)=NO2)c1F (racemic)
RESULT: 2.88[b]

QUERY: Input O=C(Cn1nc(C(F)F)cc1C(F)F)N1CCC(c2nc(C3=NOC(c4cccc(OS(=O)(=O)C5CC5)c4)C3)cs2)CC1 (centres unmarked) , output reported logp [b].
RESULT: 3.07[b]

QUERY: Name the recorded logp [b] of the compound listed here: CCNC(=O)Oc1ccccc1C1CC(c2csc(C3CCN(C(=O)Cn4nc(C(F)F)cc4C(F)F)CC3)n2)=NO1 (centres unmarked)
RESULT: 2.81[b]

QUERY: Specify logp [b] for C=CC(=O)Oc1ccccc1C1CC(c2csc(C3CCN(C(=O)Cn4nc(C(F)F)cc4C(F)F)CC3)n2)=NO1 (centres unmarked) and stop.
RESULT: 3.15[b]

QUERY: State, in one line, measured logp [b] of CCS(=O)(=O)Oc1ccccc1C1CC(c2csc(C3CCN(C(=O)Cn4nc(C(F)F)cc4C(F)F)CC3)n2)=NO1 (centres unmarked)
RESULT: 3.09[b]

QUERY: Look up and state reported logp [b] for Cc1cc(C(F)(F)F)nn1CC(=O)N1CCC(c2nc(C3=NOC(c4ccccc4OS(=O)(=O)C4CC4)C3)cs2)CC1 (racemic)
RESULT: 3.31[b]

QUERY: Entry CS(=O)(=O)Oc1c(Cl)cccc1C1CC(c2csc(C3CCN(C(=O)Cn4nc(C(F)F)cc4C(F)F)CC3)n2)=NO1 (centres unmarked) needs its logp [b] filled in; supply it.
RESULT: 3.19[b]

###

Some compounds, each annotated with its measured logp [a].
Details: pH 2.7

QUERY: Read off the recorded logp [a] for O=C(Oc1ccccc1C1CC(c2csc(C3CCN(C(=O)Cn4nc(C(F)F)cc4C(F)F)CC3)n2)=NO1)c1ccccc1 (stereo not shown)
RESULT: 3.69[a],

QUERY: Provide logp [a] value for the following compound: O=C(Cn1nc(C(F)F)cc1C(F)F)N1CCC(c2nc(C3=NOC(c4ccccc4OS(=O)(=O)C(F)(F)F)C3)cs2)CC1 (stereo not shown)
RESULT: 3.92[a],

QUERY: Specify logp [a] for Cc1cc(OS(C)(=O)=O)c(C2(C)CC(c3csc(C4CCN(C(=O)Cn5nc(C(F)F)cc5C(F)F)CC4)n3)=NO2)cc1C (stereo not shown) and stop.
RESULT: 3.63[a],

QUERY: Answer with the recorded logp [a] of CN(C)C(=S)c1ccccc1C1CC(c2csc(C3CCN(C(=O)Cn4nc(C(F)F)cc4C(F)F)CC3)n2)=NO1 (stereo not shown) only.
RESULT: 3.11[a],

###

Tested on: Plasmopara viticola
Test: Plasmopara test (grapevine)/protective
Assay type: in vivo
Conditions: grapevine young plants, protective spray, active ingredient concentration 10 ppm, evaluation 6 days after inoculation; 0% = control, 100% = no infection
measuredQuantity: Eff. % (%)
Your answer is read as %, so omit the unit and give the number.

compound	targetOfAssay	testValue
O=C(Oc1ccccc1C1CC(c2csc(C3CCN(C(=O)Cn4nc(C(F)F)cc4C(F)F)CC3)n2)=NO1)c1ccc(F)cc1 (stereo not shown)	Plasmopara viticola	96

QUERY: Provide measured Eff. % value, entry: Cc1cc(C(F)(F)F)nn1CC(=O)N1CCC(c2nc(C3=NOC(c4ccccc4C=NO)C3)cs2)CC1 (mixture of isomers)
RESULT: 95

QUERY: Provide Eff. % value for the following compound: O=C(Cn1nc(C(F)F)cc1C(F)F)N1CCC(c2nc(C3=NOC(c4ccccc4OS(=O)(=O)C4CC4)C3)cs2)CC1 (stereo not shown)
RESULT: 100

QUERY: Return the recorded Eff. % value; entry: COC(=O)COc1ccc(C2CC(c3csc(C4CCN(C(=O)Cn5nc(C(F)F)cc5C(F)F)CC4)n3)=NO2)cc1 (stereo not shown)
RESULT: 93

QUERY: Dear colleague, please send me the reported Eff. % for N#CCCn1cccc1C1CC(c2csc(C3CCN(C(=O)Cn4nc(C(F)F)cc4C(F)F)CC3)n2)=NO1 (stereo not shown) when you can.
RESULT: 95

QUERY: Name the recorded Eff. % of the item O=C(Oc1ccccc1C1CC(c2csc(C3CCN(C(=O)Cn4nc(C(F)F)cc4C(F)F)CC3)n2)=NO1)c1ccccc1F (stereo not shown) in your answer.
RESULT: 100

QUERY: Annotate the compound C#CCOCc1ccccc1C1CC(c2csc(C3CCN(C(=O)Cn4nc(C(F)F)cc4C(F)F)CC3)n2)=NO1 (racemic) [I-53] with its measured Eff. %.
RESULT: 96

Provenance of the data: patent US9930890B2
